- Read-out: UDP glucuronosyltransferase (UGT1A6), UGT1A6 (gene 54578)
- EXPERIMENTAL_DETAILS: LTEA_HepaRG_UGT1A6: Life Technologies and Expression Analysis (LTEA) Assay for UDP glucuronosyltransferase (UGT1A6) using HepaRG (AID 2283539)
- CONDITION_DETAILS: mRNA level, 48 h; actives raise or lower the signal
Active and inactive are the calls of the source. Rule for the calls: active = hit-call score of the fitted dose curve at least 0.9, where 1 is the maximum; inactive = score below 0.9.
Outcome codes: active, inactive

{"columns": ["SMILES", "GROUP"],
 "data": [
  ["O=C1c2ccccc2C(=O)N1CCc1noc(-c2ccc(CN3CCCCCC3)s2)n1", "inactive"],
  ["CCOC(=O)O[C@H](C)OC(=O)c1ccc2c(c1)cc(C(=O)NC1CCN(C(C)C)CC1)n2Cc1cc(-c2ccc(Cl)s2)on1", "inactive"],
  ["Cc1occc1C(=O)Nc1ccc(C(=O)N2CCC(F)(F)/C(=C\\C(=O)N3CCC(N4CCCCC4)CC3)c3ccccc32)cc1", "inactive"],
  ["COc1cccc([C@H](O)C2CCN(CCc3ccc(F)cc3)CC2)c1OC", "inactive"],
  ["CC(C)(O)c1ccc(CNC(=O)c2cccnc2Oc2ccc3nonc3c2)cc1", "inactive"],
  ["O=c1c(-c2ccc(O)cc2)coc2cc(O)cc(O)c12", "inactive"],
  ["Cc1c2ccccc2c(C)c2c1ccc1ccccc12", "active"],
  ["CC[C@H](NC(=O)c1cc(F)ccc1NS(=O)(=O)c1cccc2cccnc12)c1ccccc1", "active"],
  ["C[C@]12CC[C@@H]3c4ccc(O)cc4CC[C@H]3[C@@H]1CCC2=O", "inactive"],
  ["CC1=CC(=O)/C(=C(/C)O)C(=O)O1", "inactive"]
]}

###

- SUBJECT_OF_TEST: Retinoic acid receptor RXR-alpha (Homo sapiens) (UniProt P19793)
- Sequence (P19793 whole entry, looked up): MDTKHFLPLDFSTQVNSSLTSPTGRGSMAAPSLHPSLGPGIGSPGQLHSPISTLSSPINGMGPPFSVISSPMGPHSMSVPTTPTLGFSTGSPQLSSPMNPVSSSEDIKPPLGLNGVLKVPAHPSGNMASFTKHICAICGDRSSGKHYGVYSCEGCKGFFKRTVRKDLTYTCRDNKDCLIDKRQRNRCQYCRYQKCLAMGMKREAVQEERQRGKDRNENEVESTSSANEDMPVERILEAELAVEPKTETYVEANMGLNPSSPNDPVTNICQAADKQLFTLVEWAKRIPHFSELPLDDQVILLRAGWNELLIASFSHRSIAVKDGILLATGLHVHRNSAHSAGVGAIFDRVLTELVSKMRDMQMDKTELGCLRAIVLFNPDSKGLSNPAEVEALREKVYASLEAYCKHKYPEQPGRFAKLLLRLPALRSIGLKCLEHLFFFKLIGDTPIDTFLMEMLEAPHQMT
- EXPERIMENTAL_DETAILS: OT_NURR1_NURR1RXRa_1440: Odyssey Thera (OT) 24-hour HEK293T Protein Complementation Assay for Nurr1/retinoid X receptor (RXR) (AID 2283386)
Inconclusive results are not listed. Activity calls are given as the source filed them. How the source made its calls: active means hit-call score of the fitted dose curve at least 0.9, where 1 is the maximum; inconclusive means response in the unintended direction; inactive means score below 0.9.
Outcome codes: active, inactive

{"columns": ["COMPOUND", "SUBJECT_OF_TEST", "GROUP"],
 "data": [
  ["CCCC(=O)OCCC(C)C", "Retinoic acid receptor RXR-alpha (Homo sapiens) (UniProt P19793)", "inactive"],
  ["Cc1ccc(C(C)C)cc1", "Retinoic acid receptor RXR-alpha (Homo sapiens) (UniProt P19793)", "inactive"],
  ["O=C(O)c1ccccc1C(=O)OCc1ccccc1", "Retinoic acid receptor RXR-alpha (Homo sapiens) (UniProt P19793)", "inactive"],
  ["O=CCCCC=O", "Retinoic acid receptor RXR-alpha (Homo sapiens) (UniProt P19793)", "inactive"],
  ["CC[C@H](NC(=O)c1cc(F)ccc1NS(=O)(=O)c1cccc2cccnc12)c1ccccc1", "Retinoic acid receptor RXR-alpha (Homo sapiens) (UniProt P19793)", "inactive"],
  ["Clc1cc(Cl)c2c(c1)N=C1CCCCCN1C2", "Retinoic acid receptor RXR-alpha (Homo sapiens) (UniProt P19793)", "inactive"],
  ["Cc1cc(F)ccc1-c1cc(N2CC[C@@H](O)[C@H]2CO)ncc1N(C)C(=O)C(C)(C)c1cc(C(F)(F)F)cc(C(F)(F)F)c1", "Retinoic acid receptor RXR-alpha (Homo sapiens) (UniProt P19793)", "active"],
  ["Cc1cn([C@H]2C[C@H](N=[N+]=[N-])[C@@H](CO)O2)c(=O)[nH]c1=O", "Retinoic acid receptor RXR-alpha (Homo sapiens) (UniProt P19793)", "inactive"],
  ["CN1C(=O)N(c2ccccc2Br)Cc2cnc(Nc3ccc4c(c3)OCC(CO)O4)nc21 (configuration not stated)", "Retinoic acid receptor RXR-alpha (Homo sapiens) (UniProt P19793)", "inactive"],
  ["CCCCCCCCN(C)CCCCCCCC", "Retinoic acid receptor RXR-alpha (Homo sapiens) (UniProt P19793)", "inactive"],
  ["OC12N=C(c3ccccc3)SC1Cc1cc(Cl)ccc12 (configuration not stated)", "Retinoic acid receptor RXR-alpha (Homo sapiens) (UniProt P19793)", "active"],
  ["O=C=NCCCCCCN=C=O", "Retinoic acid receptor RXR-alpha (Homo sapiens) (UniProt P19793)", "inactive"]
]}

###

- Read-out: NAD(P)H dehydrogenase [quinone] 1 (NQO1), NQO1 (gene 1728)
- EXPERIMENTAL_DETAILS: LTEA_HepaRG_NQO1: Life Technologies and Expression Analysis (LTEA) Assay for NAD(P)H dehydrogenase [quinone] 1 (NQO1) using HepaRG (AID 2283526)
- CONDITION_DETAILS: mRNA level, 48 h; actives raise or lower the signal
The source made the active and inactive calls. How the source made its calls: active means hit-call score of the fitted dose curve at least 0.9, where 1 is the maximum; inactive means score below 0.9.
Outcome codes: active, inactive

{"columns": ["COMPOUND", "GROUP"],
 "data": [
  ["c1ccc2n[nH]nc2c1", "inactive"],
  ["CN(C)c1ccc(C(=C2C=CC(=[N+](C)C)C=C2)c2ccc(N(C)C)cc2)cc1", "active"],
  ["O=c1[nH]sc2ccccc12", "inactive"],
  ["O=C(O)c1ccccc1C(=O)OCc1ccccc1", "inactive"],
  ["Cc1ncc(CO)c(CO)c1O", "inactive"],
  ["CC[C@@H]1C[C@H](N(Cc2cc(C(F)(F)F)cc(C(F)(F)F)c2)C(C)=O)c2cc(C(F)(F)F)ccc2N1C(=O)OC(C)C", "inactive"],
  ["O=C(O)c1ccccc1-n1cc(C(=O)O)c(=O)c2cc(Nc3c(F)cc(F)cc3Cl)c(Cl)cc21", "inactive"],
  ["Cc1ccc2oc(CN(Cc3ccccc3)C(=O)Nc3c(F)cc(F)cc3F)c(-c3ccc(Cl)cc3)c2c1", "inactive"],
  ["Cc1cccc2ccccc12", "inactive"],
  ["NC(=O)c1nc(-c2cccc(-c3cc(F)ccc3OCC(F)(F)C(F)(F)F)c2)n[nH]1", "active"],
  ["CCCCCCCCN(C)CCCCCCCC", "inactive"],
  ["Cc1cc2c(cc1C(F)(F)F)N(C(=O)Nc1ccc(Oc3cccnc3C)nc1)CC2", "inactive"],
  ["OC12N=C(c3ccccc3)SC1Cc1cc(Cl)ccc12 (centres undefined)", "inactive"],
  ["O=C(O)Cn1c(=O)n(Cc2ccc(Br)cc2F)c(=O)c2ccc(Cl)cc21", "inactive"]
]}

###

- Read-out: Monokine induced gamma interferon (MIG), CXCL9 (gene 4283)
- EXPERIMENTAL_DETAILS: BSK_CASM3C_MIG: BioMAP Diversity Plus: CASM3C Assay for Monokine induced gamma interferon (MIG) Biomarker Activity (AID 2283048);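 note: MIG protein level measured by ELISA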
- CONDITION_DETAILS: primary human coronary artery smooth muscle cells; actives raise or lower the signal
Active and inactive are the calls of the source. Rule for the calls: active = hit-call score of the fitted dose curve at least 0.9, where 1 is the maximum; inactive = score below 0.9.
Outcome codes: Y = active, N = inactive

{"columns": ["SMILES", "GROUP"],
 "data": [
  ["CCCCCCCCOC(=O)c1cc(O)c(O)c(O)c1", "Y"],
  ["Cc1cc2c(cc1C(F)(F)F)N(C(=O)Nc1ccc(Oc3cccnc3C)nc1)CC2", "N"],
  ["Clc1ccccc1C(c1ccccc1)(c1ccccc1)n1ccnc1", "Y"],
  ["NCc1cccc(C2CCN(C(=O)c3ccc(C#Cc4ccccc4F)o3)CC2)c1", "Y"],
  ["C[C@]12CC[C@@H]3c4ccc(O)cc4CC[C@H]3[C@@H]1CCC2=O", "N"],
  ["CC[C@@H]1C[C@H](N(Cc2cc(C(F)(F)F)cc(C(F)(F)F)c2)C(C)=O)c2cc(C(F)(F)F)ccc2N1C(=O)OC(C)C", "N"],
  ["Cc1ccc2oc(CN(Cc3ccccc3)C(=O)Nc3c(F)cc(F)cc3F)c(-c3ccc(Cl)cc3)c2c1", "N"],
  ["CC(C)(O)c1ccc(CNC(=O)c2cccnc2Oc2ccc3nonc3c2)cc1", "N"],
  ["CCN(CC)C(=O)c1cc(S(=O)(=O)Cc2ccccc2)c(N2CCC(c3ccccc3)CC2)cc1N(CC)CCN(C)C", "N"],
  ["O=CCCCC=O", "N"],
  ["Oc1ccccc1", "N"],
  ["COc1ccc2cc(S(=O)(=O)N[C@H](CC(=O)N[C@H](Cc3ccc(CN4[C@H](C)CCC[C@@H]4C)cc3)C(=O)N(C)C(C)C)c3ccc4c(c3)OCO4)ccc2c1", "N"]
]}

###

- SUBJECT_OF_TEST: Peroxisome proliferator-activated receptor gamma (Homo sapiens) (UniProt P37231)
- Sequence (P37231 whole entry, looked up): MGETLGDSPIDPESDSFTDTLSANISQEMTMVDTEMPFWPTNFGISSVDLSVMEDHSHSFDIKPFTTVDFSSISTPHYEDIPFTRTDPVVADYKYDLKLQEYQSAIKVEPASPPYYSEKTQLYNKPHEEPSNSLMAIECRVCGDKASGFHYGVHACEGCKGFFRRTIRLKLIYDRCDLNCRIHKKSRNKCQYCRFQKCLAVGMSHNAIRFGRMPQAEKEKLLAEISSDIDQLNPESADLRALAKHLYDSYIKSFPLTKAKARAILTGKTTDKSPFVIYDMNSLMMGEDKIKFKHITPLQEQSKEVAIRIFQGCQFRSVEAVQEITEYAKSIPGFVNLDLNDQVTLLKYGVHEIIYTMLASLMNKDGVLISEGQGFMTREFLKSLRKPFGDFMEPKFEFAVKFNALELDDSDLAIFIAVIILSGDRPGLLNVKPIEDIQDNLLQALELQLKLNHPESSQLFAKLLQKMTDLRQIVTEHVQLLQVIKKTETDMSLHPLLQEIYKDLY
- EXPERIMENTAL_DETAILS: ATG_PPARg_TRANS: Attagene TRANS-FACTORIAL HepG2 Assay for human Peroxisome Proliferator-activated Receptor-gamma (PPARg) (AID 2283007)
Inconclusive results are not listed. Activity calls are given as the source filed them. Rule for the calls: active = hit-call score of the fitted dose curve at least 0.9, where 1 is the maximum; inconclusive = response in the unintended direction; inactive = score below 0.9.
Outcome codes: label 1 = active, label 0 = inactive

{"columns": ["MOLECULE", "GROUP"],
 "data": [
  ["O=C1O[C@H]([C@@H](O)CO)C(O)=C1O", "label 0"],
  ["CCN(Cc1cccnc1)C(=O)c1cccc(Cl)c1[C@]1(C)C(=O)N(Cc2ccc(OC)cc2OC)c2ccc(Cl)cc21", "label 0"],
  ["CC(=O)N1CCN(c2ccc(OC[C@H]3CO[C@](Cn4ccnc4)(c4ccc(Cl)cc4Cl)O3)cc2)CC1", "label 0"],
  ["CCN(Cc1cccc(S(=O)(=O)O)c1)c1ccc(C(=C2C=CC(=[N+](CC)Cc3cccc(S(=O)(=O)O)c3)C=C2)c2ccccc2S(=O)(=O)[O-])cc1", "label 0"],
  ["Cc1cccc2ccccc12", "label 0"],
  ["O=C1c2ccccc2C(=O)N1CCc1noc(-c2ccc(CN3CCCCCC3)s2)n1", "label 0"],
  ["CCCCCCCCCCCC[N+](C)(C)C", "label 0"],
  ["CC(C)(C)c1csc(-c2cc3cc(OCc4ccccc4CC(=O)O)ccc3o2)n1", "label 1"],
  ["c1ccc2n[nH]nc2c1", "label 0"],
  ["O=CCCCC=O", "label 0"],
  ["Cc1occc1C(=O)Nc1ccc(C(=O)N2CCC(F)(F)/C(=C\\C(=O)N3CCC(N4CCCCC4)CC3)c3ccccc32)cc1", "label 1"],
  ["CN1C(=O)N(c2ccccc2Br)Cc2cnc(Nc3ccc4c(c3)OCC(CO)O4)nc21 (stereo not given)", "label 0"],
  ["CCCCCCCCOC(=O)c1cc(O)c(O)c(O)c1", "label 1"],
  ["CN1C(=O)CC[C@H]1c1cccnc1", "label 0"],
  ["CC(O)CC(C)(C)O (stereo not given)", "label 0"],
  ["Cc1cc2c(cc1C(F)(F)F)N(C(=O)Nc1ccc(Oc3cccnc3C)nc1)CC2", "label 0"],
  ["Cc1oc2c(NC(=O)c3c(Cl)cccc3Cl)cccc2c1C(C)(C)O", "label 1"],
  ["C[C@]12CC[C@@H]3c4ccc(O)cc4CC[C@H]3[C@@H]1CC[C@H]2O", "label 0"],
  ["Cc1cn([C@H]2C[C@H](N=[N+]=[N-])[C@@H](CO)O2)c(=O)[nH]c1=O", "label 0"],
  ["Cc1ncc(CO)c(CO)c1O", "label 0"]
]}

FYI, the data here is from PubChem BioAssay (EPA / NIEHS).
